- TESTED ON: UniProtKB P13631
- ASSAY REMARKS: Transactivation test, HeLa reporter cells (luciferase), RAR gamma
- SETUP CONDITIONS: HeLa stable transfectants, Schild regression vs reference antagonist, read-out: Kdapp
- Experimental: The activation of receptors with an agonist (activator) in HeLa cells leads to the expression of a reporter gene, luciferase, which, in the presence of a substrate, generates light. The activation of the receptors may thus be measured by quantifying the luminescence produced after incubating the cells in the presence of a reference antagonist. […] The activity is measured by quantifying the increase in light produced. […]
Here the recorded Kd is given for each entry.
OBSERVABLE: Kd (nM)

1. CCOCCOc1cc([C@@H](O)C#Cc2ccc(C(=O)O)cc2)cc2c1C(C)(C)CCC2(C)C [Ex 5] ... 1
2. CCOCCOc1cc([C@H](O)C#Cc2ccc(C(=O)O)cc2)cc2c1C(C)(C)CCC2(C)C [Ex 4] ... 1
3. COCCOc1cc(C(O)C#Cc2ccc(C(=O)O)cc2)cc2c1C(C)(C)CCC2(C)C (centres unmarked) [Ex 1] ... 2
4. CCOCCOc1cc(C(O)C#Cc2ccc(C(=O)O)cc2)cc2c1C(C)(C)CCC2(C)C (centres unmarked) [Ex 2] ... 30
5. CCOCCOc1cc(C(O)C#Cc2ccc(C(=O)O)c(O)c2)cc2c1C(C)(C)CCC2(C)C (centres unmarked) [Ex 3] ... 1

###

Here the recorded pKd is given for each entry.
- TESTED ON: RAR alpha (Homo sapiens)
- ASSAY REMARKS: Transactivation test, HeLa reporter cells (luciferase), RAR alpha
- SETUP CONDITIONS: HeLa stable transfectants, Schild regression vs reference antagonist, read-out: Kdapp
pKd: −log10 of the molar value.
OBSERVABLE: pKd

1. CCOCCOc1cc(C(O)C#Cc2ccc(C(=O)O)c(O)c2)cc2c1C(C)(C)CCC2(C)C (centres unmarked) ... 7.52
2. CCOCCOc1cc([C@@H](O)C#Cc2ccc(C(=O)O)cc2)cc2c1C(C)(C)CCC2(C)C ... 6.92
3. CCOCCOc1cc([C@H](O)C#Cc2ccc(C(=O)O)cc2)cc2c1C(C)(C)CCC2(C)C ... 6.92
4. COCCOc1cc(C(O)C#Cc2ccc(C(=O)O)cc2)cc2c1C(C)(C)CCC2(C)C (centres unmarked) ... 7.22
5. CCOCCOc1cc(C(O)C#Cc2ccc(C(=O)O)cc2)cc2c1C(C)(C)CCC2(C)C (centres unmarked) ... 6.00

###

- TESTED ON: RAR gamma (Homo sapiens)
- Sequence (P13631 185-419 limits assumed): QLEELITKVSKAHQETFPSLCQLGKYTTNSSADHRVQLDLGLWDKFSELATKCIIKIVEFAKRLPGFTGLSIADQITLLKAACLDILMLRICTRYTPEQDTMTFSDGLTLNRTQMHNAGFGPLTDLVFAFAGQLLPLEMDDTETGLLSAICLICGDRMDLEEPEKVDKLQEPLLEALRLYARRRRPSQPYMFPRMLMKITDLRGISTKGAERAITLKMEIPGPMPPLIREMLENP
- ASSAY REMARKS: Transactivation test, HeLa reporter cells (luciferase), RAR gamma
- Format: cell-based
- SETUP CONDITIONS: HeLa stable transfectants, concentration that gives 50% of the activity
OBSERVABLE: AC50

1) CCOCCOc1cc([C@@H](O)C#Cc2ccc(C(=O)O)cc2)cc2c1C(C)(C)CCC2(C)C ... 1.8 nM
2) CCOCCOc1cc([C@H](O)C#Cc2ccc(C(=O)O)cc2)cc2c1C(C)(C)CCC2(C)C ... 1.2 nM
3) CCOCCOc1cc(C(O)C#Cc2ccc(C(=O)O)cc2)cc2c1C(C)(C)CCC2(C)C (centres unmarked) ... 50 nM
4) CCOCCOc1cc(C(O)C#Cc2ccc(C(=O)O)c(O)c2)cc2c1C(C)(C)CCC2(C)C (centres unmarked) ... 1 nM
5) COCCOc1cc(C(O)C#Cc2ccc(C(=O)O)cc2)cc2c1C(C)(C)CCC2(C)C (centres unmarked) ... 2 nM

###

- TESTED ON: RAR beta (Homo sapiens)
- Sequence (P10826 183-417 limits assumed): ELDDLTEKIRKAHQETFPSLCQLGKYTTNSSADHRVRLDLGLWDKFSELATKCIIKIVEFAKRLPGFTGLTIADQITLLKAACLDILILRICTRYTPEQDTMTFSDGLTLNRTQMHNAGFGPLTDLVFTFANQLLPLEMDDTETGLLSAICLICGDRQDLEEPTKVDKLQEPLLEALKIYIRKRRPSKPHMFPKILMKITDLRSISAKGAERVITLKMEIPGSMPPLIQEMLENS
- ASSAY REMARKS: Transactivation test, HeLa reporter cells (luciferase), RAR beta
- Assay type: cell-based
- SETUP CONDITIONS: HeLa stable transfectants, concentration that gives 50% of the activity
- Description: The activation of receptors with an agonist (activator) in HeLa cells leads to the expression of a reporter gene, luciferase, which, in the presence of a substrate, generates light. The activation of the receptors may thus be measured by quantifying the luminescence produced after incubating the cells in the presence of a reference antagonist. […] The activity is measured by quantifying the increase in light produced. […]
Here the recorded AC50 is given for each entry.
OBSERVABLE: AC50

1. COCCOc1cc(C(O)C#Cc2ccc(C(=O)O)cc2)cc2c1C(C)(C)CCC2(C)C (centres unmarked) ... 45 nM
2. CCOCCOc1cc(C(O)C#Cc2ccc(C(=O)O)c(O)c2)cc2c1C(C)(C)CCC2(C)C (centres unmarked) ... 100 nM
3. CCOCCOc1cc([C@@H](O)C#Cc2ccc(C(=O)O)cc2)cc2c1C(C)(C)CCC2(C)C ... 200 nM
4. CCOCCOc1cc([C@H](O)C#Cc2ccc(C(=O)O)cc2)cc2c1C(C)(C)CCC2(C)C ... 200 nM
5. CCOCCOc1cc(C(O)C#Cc2ccc(C(=O)O)cc2)cc2c1C(C)(C)CCC2(C)C (centres unmarked) ... 500 nM

###

- TESTED ON: RAR beta (Homo sapiens, UniProt P10826)
- Sequence (P10826 183-417 limits assumed): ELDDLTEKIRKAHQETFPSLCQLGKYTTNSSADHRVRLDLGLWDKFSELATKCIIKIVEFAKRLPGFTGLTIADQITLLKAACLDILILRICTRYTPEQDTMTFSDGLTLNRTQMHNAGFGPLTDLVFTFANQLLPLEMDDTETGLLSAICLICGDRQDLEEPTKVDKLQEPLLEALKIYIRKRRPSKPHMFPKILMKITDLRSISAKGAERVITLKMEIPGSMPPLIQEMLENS
- ASSAY REMARKS: Transactivation test, HeLa reporter cells (luciferase), RAR beta
- Assay type: cell-based
- SETUP CONDITIONS: HeLa stable transfectants, Schild regression vs reference antagonist, read-out: Kdapp
pKd: −log10 of the molar value.
OBSERVABLE: pKd

1) CCOCCOc1cc(C(O)C#Cc2ccc(C(=O)O)c(O)c2)cc2c1C(C)(C)CCC2(C)C (centres unmarked) ... 6.92
2) COCCOc1cc(C(O)C#Cc2ccc(C(=O)O)cc2)cc2c1C(C)(C)CCC2(C)C (centres unmarked) ... 7.22

###

- TESTED ON: RAR alpha (Homo sapiens, UniProt P10276)
- Sequence (P10276 183-417 limits assumed): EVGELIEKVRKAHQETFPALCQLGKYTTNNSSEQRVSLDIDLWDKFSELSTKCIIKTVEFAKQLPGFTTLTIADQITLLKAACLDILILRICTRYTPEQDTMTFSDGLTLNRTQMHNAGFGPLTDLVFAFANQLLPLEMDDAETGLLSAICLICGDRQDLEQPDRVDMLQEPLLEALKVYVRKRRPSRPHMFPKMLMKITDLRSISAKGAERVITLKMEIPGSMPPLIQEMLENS
- ASSAY REMARKS: Transactivation test, HeLa reporter cells (luciferase), RAR alpha
- Assay type: cell-based
- SETUP CONDITIONS: HeLa stable transfectants, concentration that gives 50% of the activity
OBSERVABLE: AC50 (nM)

1. CCOCCOc1cc([C@H](O)C#Cc2ccc(C(=O)O)cc2)cc2c1C(C)(C)CCC2(C)C ... 800
2. COCCOc1cc(C(O)C#Cc2ccc(C(=O)O)cc2)cc2c1C(C)(C)CCC2(C)C (centres unmarked) ... 400
3. CCOCCOc1cc([C@@H](O)C#Cc2ccc(C(=O)O)cc2)cc2c1C(C)(C)CCC2(C)C ... 800
4. CCOCCOc1cc(C(O)C#Cc2ccc(C(=O)O)cc2)cc2c1C(C)(C)CCC2(C)C (centres unmarked) ... 900
5. CCOCCOc1cc(C(O)C#Cc2ccc(C(=O)O)c(O)c2)cc2c1C(C)(C)CCC2(C)C (centres unmarked) ... 150
